Source listed as the supplement of paper PMC8671470.

system: myeloid leukemia patient primary cells Pat.11; test: area under dose-response curve (viability, 1 nM-10 uM) (fraction (0-1)); higher = more sensitive; details: 72 h
Item-by-item account of area under dose-response curve
observable: area under dose-response curve

compound="C=CCN(C)CCCCCCOc1ccc(C(=O)c2ccc(Br)cc2)c(F)c1.O=C(O)/C=C/C(=O)O [Ro 48-8071 fumarate]" qualifier_operator== measurement=0.0457
compound=CC(=O)Nc1nc(C)c(-c2ccc(Cl)c(S(=O)(=O)NCCO)c2)s1 qualifier_operator== measurement=0.204
compound=Cc1[nH]nc(C(F)(F)F)c1Cc1sc2c(c1C(=O)N1C[C@](C)(O)CO1)c(=O)n(C)c(=O)n2C(C)C qualifier_operator=< measurement=0.0301
compound=c1cc(-c2cnn3cc(-c4ccc(OCCN5CCCCC5)cc4)cnc23)ccn1 qualifier_operator== measurement=0.106
compound=CN1CCN(CCCN2c3ccccc3Sc3ccc(C(F)(F)F)cc32)CC1 qualifier_operator== measurement=0.174
compound=O=C(/C=C/c1ccc(O)c(O)c1)OCCc1ccccc1 qualifier_operator== measurement=0.14
compound=CC(C)(C)c1ccc(S(=O)(=O)NCc2ccc(C(=O)Nc3cccnc3)cc2)cc1 qualifier_operator== measurement=0.368
compound=O=C(O)CC[N+](=O)[O-] qualifier_operator=< measurement=0.0301
